Sourced from patent US10259810B2

target: ΔF508-CFTR (Homo sapiens, UniProt P13569, DEL508-508); construct: host or cells: CFBE41o-, doxycycline-inducible; test: CFTR cell surface levels using HRP-tagged ΔF508-CFTR expressing CFBE cells, in the presence of a co-corrector; assay type: cell-based; conditions: HRP-tagged ΔF508-CFTR CFBE cells, in the presence of 3 μM co-corrector; read-out: EC50
Sequence (P13569 with tags, fused parts or gaps DEL508-508): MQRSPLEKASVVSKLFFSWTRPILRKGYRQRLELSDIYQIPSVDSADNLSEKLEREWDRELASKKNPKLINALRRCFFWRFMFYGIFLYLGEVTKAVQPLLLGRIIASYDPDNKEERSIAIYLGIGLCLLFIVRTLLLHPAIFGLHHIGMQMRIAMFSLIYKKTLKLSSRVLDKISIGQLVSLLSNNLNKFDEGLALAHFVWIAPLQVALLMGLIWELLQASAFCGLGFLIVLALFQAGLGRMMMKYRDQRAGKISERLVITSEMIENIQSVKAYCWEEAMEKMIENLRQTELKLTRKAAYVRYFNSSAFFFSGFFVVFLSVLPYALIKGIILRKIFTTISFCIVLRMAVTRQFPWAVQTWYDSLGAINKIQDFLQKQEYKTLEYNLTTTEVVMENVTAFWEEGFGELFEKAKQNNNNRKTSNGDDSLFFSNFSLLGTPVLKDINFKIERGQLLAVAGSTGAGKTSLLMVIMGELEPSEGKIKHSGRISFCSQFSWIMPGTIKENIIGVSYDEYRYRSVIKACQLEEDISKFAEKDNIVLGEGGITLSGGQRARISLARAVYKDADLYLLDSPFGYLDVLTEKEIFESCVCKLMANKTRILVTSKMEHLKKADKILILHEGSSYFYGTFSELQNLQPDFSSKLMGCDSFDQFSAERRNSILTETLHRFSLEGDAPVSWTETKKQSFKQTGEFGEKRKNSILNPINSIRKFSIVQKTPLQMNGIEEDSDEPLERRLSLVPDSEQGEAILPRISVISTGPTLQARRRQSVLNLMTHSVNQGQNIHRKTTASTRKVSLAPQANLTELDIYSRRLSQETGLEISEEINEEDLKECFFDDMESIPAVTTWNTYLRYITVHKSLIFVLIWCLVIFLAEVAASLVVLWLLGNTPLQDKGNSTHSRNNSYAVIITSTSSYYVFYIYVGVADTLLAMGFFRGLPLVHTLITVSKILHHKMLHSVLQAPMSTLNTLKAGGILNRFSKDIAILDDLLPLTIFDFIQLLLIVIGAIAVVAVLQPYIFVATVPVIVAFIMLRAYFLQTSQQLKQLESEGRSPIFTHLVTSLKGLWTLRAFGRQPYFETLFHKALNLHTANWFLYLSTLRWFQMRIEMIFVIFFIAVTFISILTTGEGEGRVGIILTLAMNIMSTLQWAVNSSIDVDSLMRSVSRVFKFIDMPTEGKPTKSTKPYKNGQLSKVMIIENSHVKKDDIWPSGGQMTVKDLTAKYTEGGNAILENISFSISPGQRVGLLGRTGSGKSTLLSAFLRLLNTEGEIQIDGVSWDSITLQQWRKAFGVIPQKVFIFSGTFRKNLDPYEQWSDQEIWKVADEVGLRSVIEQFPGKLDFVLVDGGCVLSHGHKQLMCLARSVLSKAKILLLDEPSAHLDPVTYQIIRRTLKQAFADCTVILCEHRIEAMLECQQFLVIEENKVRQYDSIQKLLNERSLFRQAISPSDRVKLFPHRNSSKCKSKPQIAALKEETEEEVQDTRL
Field: label. Allowed values: Yes (EC50 < 300 nM) or No (EC50 >= 300 nM).

Record excerpt, results attached:
CCOC(=O)N1CCC(NS(=O)(=O)NC(=O)c2cc(N3CCC(N4CCOCC4)CC3)c3c(C4CCC4)nn(-c4ccccc4)c3n2)CC1 : Yes
CC(C)c1nn(-c2ccc(F)cc2)c2nc(C(=O)NS(C)(=O)=O)cc(OCC3CCCO3)c12 (stereo not drawn) : No
CN(C)S(=O)(=O)NC(=O)c1cc(N2CCC(N3CC(C#N)C3)CC2)c2c(C3CCC3)nn(-c3ccc(F)cc3)c2n1 : Yes
CCS(=O)(=O)NC(=O)c1cc(-c2ccc(N3CCOCC3)cc2)c2c(C)nn(-c3ccc(OC(F)(F)F)cc3)c2n1 : No

input: Consider `CS(=O)(=O)NC(=O)c1cc(-c2ccc(N3CCC(C#N)CC3)nc2)c2c(n1)n(-c1ccccc1)nc2[C@H]1C[C@@H](F)C1` . Does its EC50 lie strictly below 300 nM?
output: Yes

---

target: ΔF508-CFTR (Homo sapiens, UniProt P13569, DEL508-508); construct: host or cells: CFBE41o-, doxycycline-inducible; experiment: CFTR cell surface levels using HRP-tagged ΔF508-CFTR expressing CFBE cells, in the presence of a co-corrector; assay type: cell-based; conditions: HRP-tagged ΔF508-CFTR CFBE cells, in the presence of 3 μM co-corrector; read-out: EC50
# EC50 per entry
// note: answer is a bare numeric in µM

Consider the reported EC50 for these compounds:
COCCN1CCN(c2ccc(-c3cc(C(=O)NS(=O)(=O)N(C)C)nc4c3c(C3CCC3)nn4C3CCCCC3)cn2)CC1 : 0.13
O=C(NS(=O)(=O)C1CC1)c1cc(N2CCC(CN3CCCC3)CC2)c2c(C3CCC3)nn(-c3ccccc3)c2n1 : 0.107
COCCN(CCOC)c1ccc(-c2cc(C(=O)NS(C)(=O)=O)nc3c2c(C2CCC2)nn3-c2ccccc2)cn1 : 0.0773

CN(C)S(=O)(=O)NC(=O)c1cc(N2CCC(N3CCC(C(F)(F)F)C3)CC2)c2c(C3CCC3)nn(-c3ccc(F)cc3)c2n1 (stereo not shown) has a reported EC50 of 0.0661

---

molecular target: ΔF508-CFTR (Homo sapiens, UniProt P13569, DEL508-508); construct: host or cells: CFBE41o-, doxycycline-inducible; assay: CFTR cell surface levels using HRP-tagged ΔF508-CFTR expressing CFBE cells, in the presence of a co-corrector; type: cell-based; conditions: HRP-tagged ΔF508-CFTR CFBE cells, in the presence of 3 μM co-corrector; read-out: EC50
attribute measured: pEC50
# pEC50: negative log10 of molar concentration; output just the value

Consider the reported pEC50 for these molecules:
CC(C)c1nn(C2CCCCC2)c2nc(C(=O)NS(C)(=O)=O)cc(-c3ccc(N4CCCC(F)C4)nc3)c12 (stereo not drawn) : 6.29
CCS(=O)(=O)NC(=O)c1cc(-c2ccc(N3CCOCC3)cc2)c2c(C)nn(-c3ccc(F)c(F)c3)c2n1 : 6.20
COCC1CCN(c2cc(C(=O)NS(C)(=O)=O)nc3c2c(C(C)C)nn3-c2cccc(C)c2)CC1 : 6.44
COCC1CCN(c2cc(C(=O)NS(=O)(=O)CCCN3CCC3)nc3c2c(C(C)C)nn3-c2ccc(F)cc2)CC1 : 5.74
CS(=O)(=O)NC(=O)c1cc(OCC2CCC(F)(F)C2)c2c(C3CCC3)nn(-c3ccccc3)c2n1 (stereo not drawn) : 6.66

CS(=O)(=O)NC(=O)c1cc(N2CCC(N3CCC(C(F)(F)F)C3)CC2)c2c(C3CCC3)nn(-c3ccc(F)cc3)c2n1 (stereo not drawn) has a reported pEC50 of 7.39

`O=C(NS(=O)(=O)N1CCC(F)CC1)c1cc(N2CCC(N3CCOCC3)CC2)c2c(C3CCC3)nn(-c3ccccc3)c2n1` has a reported pEC50 of 7.23

---

target: ΔF508-CFTR (Homo sapiens, UniProt P13569, DEL508-508); construct: host or cells: CFBE41o-, doxycycline-inducible; test: CFTR cell surface levels using HRP-tagged ΔF508-CFTR expressing CFBE cells, in the presence of a co-corrector; assay type: cell-based; conditions: HRP-tagged ΔF508-CFTR CFBE cells, in the presence of 3 μM co-corrector
# % Activation per entry
// note: answer is a bare numeric in %

Consider the reported % Activation for these compounds:
CS(=O)(=O)NC(=O)c1cc(-c2ccc(N3CCC(C#N)CC3)nc2)c2c(C3CCC3)nn(-c3ccnc(N4CCCC4)c3)c2n1 [Compound 189] : 409.6
CO[C@H]1CC[C@H](Oc2cc(C(=O)NS(C)(=O)=O)nc3c2c(C2CCC2)nn3-c2ccccc2)CC1 [Compound 212] : 290.43
CN(C)S(=O)(=O)NC(=O)c1cc(N2CCC(N3CCC(C#N)C3)CC2)c2c(C3CCC3)nn(-c3ccc(F)cc3)c2n1 (centres unmarked) [Compound 561] : 509.4

O=C(NS(=O)(=O)C1CCOC1)c1cc(N2CCC(N3CCCCC3)CC2)c2c(C3CCC3)nn(-c3ccc(F)cc3)c2n1 (centres unmarked) [Compound 451] has a reported % Activation of 391

CS(=O)(=O)NC(=O)c1cc(N2CCC(OCC3CC3)CC2)c2c(C3CCC3)nn(-c3ccccc3)c2n1 [Compound 230] has a reported % Activation of 440.1

---

# % Activation per entry
molecular target: ΔF508-CFTR (Homo sapiens, UniProt P13569, DEL508-508); construct: host or cells: CFBE41o-, doxycycline-inducible; assay: CFTR cell surface levels using HRP-tagged ΔF508-CFTR expressing CFBE cells, in the presence of a co-corrector; type: cell-based; settings: HRP-tagged ΔF508-CFTR CFBE cells, in the presence of 3 μM co-corrector
// note: answer is a bare numeric in %

CN(C)S(=O)(=O)NC(=O)c1cc(N2CCC(CN3CCOCC3)CC2)c2c(C3CCC3)nn(C3CCCCC3)c2n1 [Compound 424] : 453.88
COCC1CCN(c2cc(C(=O)NS(=O)(=O)N3CCCN(C(C)=O)CC3)nc3c2c(C2CCC2)nn3-c2ccccc2)CC1 [Compound 394] : 366.87
O=C(NS(=O)(=O)N1CCC1)c1cc(N2CCC(N3CCOCC3)CC2)c2c(C3CCC3)nn(-c3ccc(F)cc3)c2n1 [Compound 576] : 443.5
CCS(=O)(=O)NC(=O)c1cc(-c2ccc(N3CCOCC3)cc2)c2c(C3(C)CCC3)nn(-c3ccccc3)c2n1 [Compound 138] : 433.83
CC(C)c1nn(-c2cccc(N3CCOCC3)c2)c2nc(C(=O)NS(C)(=O)=O)cc(-c3cnc(N4CCC(C#N)CC4)nc3)c12 [Compound 99] : 601.15

# CC(C)Oc1nn(C2CCCCC2)c2nc(C(=O)NS(C)(=O)=O)cc(-c3ccc(CN4CCN(C5CC5)CC4)cc3)c12 [Compound 597] with ΔF508-CFTR (Homo sapiens, UniProt P13569, DEL508-508): % Activation is 433.93

# COCCN(C)c1ncc(-c2cc(C(=O)NS(C)(=O)=O)nc3c2c(C(C)C)nn3C2CCCCC2)cn1 [Compound 120] with ΔF508-CFTR (Homo sapiens, UniProt P13569, DEL508-508): % Activation is 351.03

# Cc1cc(N2CCN(c3cc(C(=O)NS(=O)(=O)N(C)C)nc4c3c(C3CCC3)nn4C3CCCCC3)CC2)ccn1 [Compound 535] with ΔF508-CFTR (Homo sapiens, UniProt P13569, DEL508-508): % Activation is 670.35

# CC(C)Oc1nn(C2CCCCC2)c2nc(C(=O)NS(=O)(=O)N(C)C)cc(-c3ccc(N4CCN(C5CC5)CC4)cc3)c12 [Compound 559] with ΔF508-CFTR (Homo sapiens, UniProt P13569, DEL508-508): % Activation is 291.03

# CC(C)Oc1cc(-n2nc(C3CCC3)c3c(N4CCC(N5CCOCC5)CC4)cc(C(=O)NS(C)(=O)=O)nc32)ccn1 [Compound 530] with ΔF508-CFTR (Homo sapiens, UniProt P13569, DEL508-508): % Activation is 464.6

# COC1CCN(Cc2ccc(-c3cc(C(=O)NS(C)(=O)=O)nc4c3c(OC(C)C)nn4C3CCCCC3)cc2)CC1 [Compound 635] with ΔF508-CFTR (Homo sapiens, UniProt P13569, DEL508-508): % Activation is 449.25
